Entry source: ChEMBL document CHEMBL5291721

OBSERVED_PROPERTY: AC50

Write down the reported AC50 of "O=C(CCCCCCC(=O)Nc1ccccc1)NO" , test system: Gamma-aminobutyric acid receptor subunit alpha-1 (Rattus norvegicus, UniProt P62813). Also: assay procedure not described here.
Sequence (P62813 whole entry): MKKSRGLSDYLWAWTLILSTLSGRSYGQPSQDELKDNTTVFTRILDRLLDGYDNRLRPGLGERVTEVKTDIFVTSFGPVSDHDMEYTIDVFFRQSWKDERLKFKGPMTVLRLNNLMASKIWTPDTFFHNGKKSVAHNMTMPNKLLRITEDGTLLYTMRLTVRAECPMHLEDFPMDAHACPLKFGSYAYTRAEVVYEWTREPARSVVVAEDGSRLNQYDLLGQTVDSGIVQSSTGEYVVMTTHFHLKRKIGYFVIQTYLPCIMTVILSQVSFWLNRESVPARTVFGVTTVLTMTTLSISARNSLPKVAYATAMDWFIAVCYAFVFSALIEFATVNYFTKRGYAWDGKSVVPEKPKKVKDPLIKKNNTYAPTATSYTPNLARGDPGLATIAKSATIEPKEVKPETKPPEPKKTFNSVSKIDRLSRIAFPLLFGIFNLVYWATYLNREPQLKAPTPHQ
> 10 µM

Write down the reported AC50 of COC(=O)C1=C(C)NC(C)=C(C(=O)OCC(C)C)C1c1ccccc1[N+](=O)[O-] (stereo not given) , test system: Gamma-aminobutyric acid receptor subunit alpha-1 (Rattus norvegicus, UniProt P62813). Also: assay procedure not described here.
> 10 µM

Write down the reported AC50 of CC(N)Cc1ccccc1 (stereo not given) , test system: Gamma-aminobutyric acid receptor subunit alpha-1 (Rattus norvegicus, UniProt P62813). Also: assay procedure not described here.
> 10 µM

Write down the reported AC50 of NC(=O)C[S+]([O-])C(c1ccccc1)c1ccccc1 (stereo not given) , test system: Gamma-aminobutyric acid receptor subunit alpha-1 (Rattus norvegicus, UniProt P62813). Also: assay procedure not described here.
> 10 µM

Write down the reported AC50 of "O=C(Cn1ccnc1[N+](=O)[O-])NCc1ccccc1" , test system: Gamma-aminobutyric acid receptor subunit alpha-1 (Rattus norvegicus, UniProt P62813). Also: assay procedure not described here.
> 30 µM

Write down the reported AC50 of CC(=O)NS(=O)(=O)c1ccc(N)cc1 [SULFACETAMIDE] , test system: Gamma-aminobutyric acid receptor subunit alpha-1 (Rattus norvegicus, UniProt P62813). Also: assay procedure not described here.
> 10 µM

Write down the reported AC50 of NS(=O)(=O)c1cc2c(cc1Cl)NCNS2(=O)=O [HYDROCHLOROTHIAZIDE] , test system: Gamma-aminobutyric acid receptor subunit alpha-1 (Rattus norvegicus, UniProt P62813). Also: assay procedure not described here.
> 10 µM

Write down the reported AC50 of CCOc1cc(N)c([N+](=O)[O-])cc1C(=O)NC1CCN(CC2CC=CCC2)CC1 (stereo not given) [CINITAPRIDE] , test system: Gamma-aminobutyric acid receptor subunit alpha-1 (Rattus norvegicus, UniProt P62813). Also: assay procedure not described here.
> 30 µM

Write down the reported AC50 of CC(C(=O)O)c1ccc(C(=O)c2cccs2)cc1 (stereo not given) , test system: Gamma-aminobutyric acid receptor subunit alpha-1 (Rattus norvegicus, UniProt P62813). Also: assay procedure not described here.
> 10 µM

Write down the reported AC50 of CN1C(=O)CC(c2ccccc2)C1=O (stereo not given) [PHENSUXIMIDE] , test system: Gamma-aminobutyric acid receptor subunit alpha-1 (Rattus norvegicus, UniProt P62813). Also: assay procedure not described here.
> 10 µM
